Overview of recorded growth for various compounds
# Test system: OVCAR-5 ovarian
# ASSAY DETAILS: NCI-60 one-dose screen, 48 h (100 = growth as untreated, 0 = no growth, -100 = all killed)
# RUN PARAMETERS: 10 µM unless noted
The panel holds about 83,000 compounds, 20% with a hit somewhere; the sample as a whole holds those more often.
MEASUREMENT LABEL: growth (%)

>>> recorded_value("C(#Cc1ccccc1C#Cc1ccccn1)c1ccc(OCCCCCCOc2ccc(C#Cc3ccccc3C#Cc3ccccn3)cc2)cc1")
85.4
>>> recorded_value("COc1ccc2nc(NC(=O)CN3CCn4c(nnc4C(F)(F)F)C3)sc2c1")
97.9
>>> recorded_value("O=C(Nc1nc2ccc(OC(F)(F)F)cc2s1)c1ccc(F)cc1")
43
>>> recorded_value("COc1cc(-c2nc3sc4c(c3c(=O)[nH]2)CCCCCC4)cc(OC)c1OC")
37.8
>>> recorded_value("C/C(=C\\CCc1ccoc1)CC/C=C(\\C)CCCNc1ccc(F)cc1")
93.5

Data provenance: PubChem BioAssay (NCI)
